Collected viability (% of control) values appear next to each entry.
Assay: Viability qHTS for spleen associated tyrosine kinase inhibitor (SYKi) naive MV4-11 cells (AID 1963823); also: nearly all actives have a fitted effect of over 40% in size
Conditions: MV4-11 AML viability, CellTiter-Glo luminescence, 72 h; series mostly up to 45 µM
Results filed as inconclusive are left out. The source made the active and inactive calls. Calls follow the shape of the dose curve; as a rule, active = well fitted cell-killing curve with a large enough effect; inconclusive = small, poorly fitted or top-dose-only effect, or effect the other way; inactive = no such curve, though single readings can be large or run the other way.

Past entries and their recorded results:
[[record]]
molecule = "C[C@@H]1O[C@@H](O[C@H]2[C@H](O[C@H]3[C@H](O)[C@@H](C(=O)O)O[C@@H](O[C@H]4CC[C@@]5(C)C(CC[C@]6(C)C5CC[C@]57OC[C@@]8(CCC(C)(C)CC85)[C@H](O)C[C@]76C)C4(C)C)[C@@H]3O[C@@H]3O[C@H](CO)[C@@H](O[C@@H]4OC[C@@H](O)[C@H](O)[C@H]4O)[C@H](O)[C@H]3O)O[C@H](CO)[C@H](O)[C@@H]2O)[C@H](O)[C@H](O)[C@H]1O (stereo partly specified)"
readout_type = "viability (% of control)"
assay_value = "77.6% [at 9.25 µM] (inactive)"

[[record]]
molecule = "CC(/C=C/C=C(\\C)C(=O)O[C@@H]1O[C@H](CO[C@@H]2O[C@H](CO)[C@@H](O)[C@H](O)[C@H]2O)[C@@H](O)[C@H](O)[C@H]1O)=C\\C=C\\C=C(C)\\C=C\\C=C(/C)C(=O)O[C@@H]1C[C@](O)(C(=O)O)C[C@@H](O)[C@H]1OC(=O)/C=C/c1ccc(O)c(O)c1"
readout_type = "viability (% of control)"
assay_value = "78.4% [at 9.25 µM] (inactive)"

[[record]]
molecule = "Nc1ccc(/C=C/c2ccc(N)cc2S(=O)(=O)O)c(S(=O)(=O)O)c1"
readout_type = "viability (% of control)"
assay_value = "106% [at 0.588 µM] (inactive)"

[[record]]
molecule = "C=C1CCC2(C(=O)OC3OC(CO)C(O)C(O)C3O)CCC3(C)C(=CCC4C5(C)CCC(OC6OC(CO)C(OC7OC(C)C(O)C(O)C7O)C(OC7OCC(O)C(O)C7O)C6O)C(C)(C)C5CCC43C)C2C1 (stereo unspecified)"
readout_type = "viability (% of control)"
assay_value = "89.9% [at 9.25 µM] (inactive)"

[[record]]
molecule = "CC1(C)CC2C3=CCC4C5(C)CCC(OC6OC(CO)C(O)C(OC7OC(CO)C(O)C(OC8OC(CO)C(O)C(OC9OC(COC%10OC(CO)C(O)C(O)C%10O)C(O)C(O)C9O)C8O)C7O)C6O)C(C)(C)C5CCC4(C)C3(C)CCC2(C(=O)O)CC1O (stereo unspecified)"
readout_type = "viability (% of control)"
assay_value = "81.7% [at 9.25 µM] (inactive)"


Please turn your attention to the following entry.
**Query** I am curious: what viability (% of control) value has been reported for `CC[C@H](C)[C@H](NC(=O)[C@H](Cc1ccc(O)cc1)NC(=O)[C@@H](N)C(C)C)C(=O)N[C@@H](Cc1cnc[nH]1)C(=O)N1CCC[C@H]1C(=O)N[C@@H](Cc1ccccc1)C(=O)O` ?
**Result** 98.9% [at 4.97 µM] (inactive)
